Catalogue of Minimal Inhibitory Concentration (MIC) readings, one per entry.
test system: P. aeruginosa IFO 3455; test: Minimal Inhibitory Concentration (MIC), agar dilution method; assay type: cell-based; design: unit not given here; details: Test Microorganism (14) P. aeruginosa IFO 3455; Trypticase soy agar, 37°C for 18 hours
experimental endpoint: Minimal Inhibitory Concentration (MIC)

compound="CC(C)(O)[C@@H]1C(=O)N2C(C(=O)O)=C(SCCN3CCCC3)C[C@H]12 [Example 49]" assay_system="P. aeruginosa IFO 3455" experimental_endpoint="Minimal Inhibitory Concentration (MIC)" recorded_number=12.5
compound="CN(C)CCSC1=C(C(=O)O)N2C(=O)[C@@H](C(C)(C)O)[C@H]2C1 [Example 26]" assay_system="P. aeruginosa IFO 3455" experimental_endpoint="Minimal Inhibitory Concentration (MIC)" recorded_number=25
compound="CC(C)(O)[C@@H]1C(=O)N2C(C(=O)O)=C(SCCN3CCCCC3)C[C@H]12 [Example 51]" assay_system="P. aeruginosa IFO 3455" experimental_endpoint="Minimal Inhibitory Concentration (MIC)" recorded_number=50

---

Catalogue of Minimal Inhibitory Concentration (MIC) readings, one per entry.
tested on: P. aeruginosa IFO 3455; test: Minimal Inhibitory Concentration (MIC), agar dilution method; format: cell-based; set-up: unit not given here; settings: Test Microorganism (14) P. aeruginosa IFO 3455; Trypticase soy agar, 37°C for 18 hours
experimental endpoint: Minimal Inhibitory Concentration (MIC)

molecule="CC(C)(O)[C@@H]1C(=O)N2C(C(=O)O)=C(SCCCN)C[C@H]12 [Example 33]" experimental_endpoint="Minimal Inhibitory Concentration (MIC)" recorded_number=12.5
molecule="CC(C)(O)[C@@H]1C(=O)N2C(C(=O)O)=C(SCCN)C[C@H]12 [Example 2]" experimental_endpoint="Minimal Inhibitory Concentration (MIC)" recorded_number=6.25
molecule="CC(C)(O)[C@@H]1C(=O)N2C(C(=O)O)=C(SCCCNC=N)C[C@H]12 [Example 47]" experimental_endpoint="Minimal Inhibitory Concentration (MIC)" recorded_number=3.13
molecule="CC(C)(O)[C@@H]1C(=O)N2C(C(=O)O)=C(SCCNC=N)C[C@H]12 [Example 46]" experimental_endpoint="Minimal Inhibitory Concentration (MIC)" recorded_number=3.13
molecule="CC(C)(O)[C@@H]1C(=O)N2C(C(=O)O)=C(Sc3cccnn3)C[C@H]12 [Example 20]" experimental_endpoint="Minimal Inhibitory Concentration (MIC)" recorded_number=50

---

system: E. cloacae IFO 12937; assay: Minimal Inhibitory Concentration (MIC), agar dilution method; type: cell-based; parameters: unit not given here; conditions: Test Microorganism (9) E. cloacae IFO 12937; Trypticase soy agar, 37°C for 18 hours
experimental endpoint: Minimal Inhibitory Concentration (MIC)

substance_smiles=CN(C)CCSC1=C(C(=O)O)N2C(=O)[C@@H](C(C)(C)O)[C@H]2C1 assay_system="E. cloacae IFO 12937" experimental_endpoint="Minimal Inhibitory Concentration (MIC)" recorded_number=6.25
substance_smiles=CC(C)(O)[C@@H]1C(=O)N2C(C(=O)O)=C(SCCN3CCCCC3)C[C@H]12 assay_system="E. cloacae IFO 12937" experimental_endpoint="Minimal Inhibitory Concentration (MIC)" recorded_number=6.25
substance_smiles=CC(C)(O)[C@@H]1C(=O)N2C(C(=O)O)=C(SCCN)C[C@H]12 assay_system="E. cloacae IFO 12937" experimental_endpoint="Minimal Inhibitory Concentration (MIC)" recorded_number=12.5
substance_smiles=CC(C)(O)[C@@H]1C(=O)N2C(C(=O)O)=C(Sc3cccnn3)C[C@H]12 assay_system="E. cloacae IFO 12937" experimental_endpoint="Minimal Inhibitory Concentration (MIC)" recorded_number=1.56

---

Catalogue of Minimal Inhibitory Concentration (MIC) readings, one per entry.
Tested on: E. coli T-7
Experiment: Minimal Inhibitory Concentration (MIC), agar dilution method
Type: cell-based
Design: unit not given here
Settings: Test Microorganism (6) E. coli T-7; Trypticase soy agar, 37°C for 18 hours
Description: Minimal Inhibitory Concentration (MIC) The Minimal Inhibitory Concentrations of the tested compounds were determined according to the agar dilution method. Namely, 1.0 ml each of aqueous solution of the tested compounds diluted by serial dilutions was poured into test petri dishes, subsequently 9.0 ml each of Trypticase soy agar was poured into the dishes and mixed. On each of the mixed agar plates, one loopful of bacterial suspension (about 10^8 CFU/ml) of test microorganism was streaked. […]
experimental endpoint: Minimal Inhibitory Concentration (MIC)

substance_smiles=CC(C)(O)[C@@H]1C(=O)N2C(C(=O)O)=C(SCCCNC=N)C[C@H]12 assay_system="E. coli T-7" recorded_number=0.78
substance_smiles=CC(C)(O)[C@@H]1C(=O)N2C(C(=O)O)=C(SCCNC=N)C[C@H]12 assay_system="E. coli T-7" recorded_number=0.78
substance_smiles=CC(C)(O)[C@@H]1C(=O)N2C(C(=O)O)=C(SCCCN)C[C@H]12 assay_system="E. coli T-7" recorded_number=0.78
substance_smiles=CN(C)CCSC1=C(C(=O)O)N2C(=O)[C@@H](C(C)(C)O)[C@H]2C1 assay_system="E. coli T-7" recorded_number=0.78
substance_smiles=CC(C)(O)[C@@H]1C(=O)N2C(C(=O)O)=C(SCCN3CCCCC3)C[C@H]12 assay_system="E. coli T-7" recorded_number=0.78
substance_smiles=CC(C)(O)[C@@H]1C(=O)N2C(C(=O)O)=C(Sc3cccnn3)C[C@H]12 assay_system="E. coli T-7" recorded_number=3.13
substance_smiles=CC(C)(O)[C@@H]1C(=O)N2C(C(=O)O)=C(SCCN3CCCC3)C[C@H]12 assay_system="E. coli T-7" recorded_number=0.78
substance_smiles=CC(C)(O)[C@@H]1C(=O)N2C(C(=O)O)=C(SCCN)C[C@H]12 assay_system="E. coli T-7" recorded_number=1.56

---

tested on: S. aureus 1840; assay: Minimal Inhibitory Concentration (MIC), agar dilution method; type: cell-based; set-up: unit not given here; conditions: Test Microorganism (3) S. aureus 1840; Trypticase soy agar, 37°C for 18 hours
Catalogue of Minimal Inhibitory Concentration (MIC) readings, one per entry.
experimental endpoint: Minimal Inhibitory Concentration (MIC)

substance_smiles=CC(C)(O)[C@@H]1C(=O)N2C(C(=O)O)=C(SCCN)C[C@H]12 experimental_endpoint="Minimal Inhibitory Concentration (MIC)" recorded_number=1.56
substance_smiles=CC(C)(O)[C@@H]1C(=O)N2C(C(=O)O)=C(SCCN3CCCCC3)C[C@H]12 experimental_endpoint="Minimal Inhibitory Concentration (MIC)" recorded_number=0.78
substance_smiles=CC(C)(O)[C@@H]1C(=O)N2C(C(=O)O)=C(SCCN3CCCC3)C[C@H]12 experimental_endpoint="Minimal Inhibitory Concentration (MIC)" recorded_number=0.78
substance_smiles=CN(C)CCSC1=C(C(=O)O)N2C(=O)[C@@H](C(C)(C)O)[C@H]2C1 experimental_endpoint="Minimal Inhibitory Concentration (MIC)" recorded_number=0.78
substance_smiles=CC(C)(O)[C@@H]1C(=O)N2C(C(=O)O)=C(SCCCNC=N)C[C@H]12 experimental_endpoint="Minimal Inhibitory Concentration (MIC)" recorded_number=0.78
substance_smiles=CC(C)(O)[C@@H]1C(=O)N2C(C(=O)O)=C(Sc3cccnn3)C[C@H]12 experimental_endpoint="Minimal Inhibitory Concentration (MIC)" recorded_number=0.78
substance_smiles=CC(C)(O)[C@@H]1C(=O)N2C(C(=O)O)=C(SCCNC=N)C[C@H]12 experimental_endpoint="Minimal Inhibitory Concentration (MIC)" recorded_number=0.78
substance_smiles=CC(C)(O)[C@@H]1C(=O)N2C(C(=O)O)=C(SCCCN)C[C@H]12 experimental_endpoint="Minimal Inhibitory Concentration (MIC)" recorded_number=0.78

---

test system: A. calcoaceticus IFO 13006; test: Minimal Inhibitory Concentration (MIC), agar dilution method; format: cell-based; design: unit not given here; details: Test Microorganism (16) A. calcoaceticus IFO 13006; Trypticase soy agar, 37°C for 18 hours
experimental endpoint: Minimal Inhibitory Concentration (MIC)

substance_smiles=CC(C)(O)[C@@H]1C(=O)N2C(C(=O)O)=C(SCCN3CCCC3)C[C@H]12 recorded_number=12.5
substance_smiles=CC(C)(O)[C@@H]1C(=O)N2C(C(=O)O)=C(SCCN)C[C@H]12 recorded_number=3.13
substance_smiles=CC(C)(O)[C@@H]1C(=O)N2C(C(=O)O)=C(SCCNC=N)C[C@H]12 recorded_number=6.25
substance_smiles=CC(C)(O)[C@@H]1C(=O)N2C(C(=O)O)=C(SCCCN)C[C@H]12 recorded_number=3.13
substance_smiles=CC(C)(O)[C@@H]1C(=O)N2C(C(=O)O)=C(SCCN3CCCCC3)C[C@H]12 recorded_number=25
substance_smiles=CN(C)CCSC1=C(C(=O)O)N2C(=O)[C@@H](C(C)(C)O)[C@H]2C1 recorded_number=12.5
substance_smiles=CC(C)(O)[C@@H]1C(=O)N2C(C(=O)O)=C(Sc3cccnn3)C[C@H]12 recorded_number=12.5
substance_smiles=CC(C)(O)[C@@H]1C(=O)N2C(C(=O)O)=C(SCCCNC=N)C[C@H]12 recorded_number=6.25
